- TARGET OR TEST SYSTEM: human α2A (CHO-C10) receptor (Homo sapiens, UniProt P08913)
- Construct: expressed in transfected cells; host or cells: CHO (CHO-C10)
- Sequence (P08913 1-465): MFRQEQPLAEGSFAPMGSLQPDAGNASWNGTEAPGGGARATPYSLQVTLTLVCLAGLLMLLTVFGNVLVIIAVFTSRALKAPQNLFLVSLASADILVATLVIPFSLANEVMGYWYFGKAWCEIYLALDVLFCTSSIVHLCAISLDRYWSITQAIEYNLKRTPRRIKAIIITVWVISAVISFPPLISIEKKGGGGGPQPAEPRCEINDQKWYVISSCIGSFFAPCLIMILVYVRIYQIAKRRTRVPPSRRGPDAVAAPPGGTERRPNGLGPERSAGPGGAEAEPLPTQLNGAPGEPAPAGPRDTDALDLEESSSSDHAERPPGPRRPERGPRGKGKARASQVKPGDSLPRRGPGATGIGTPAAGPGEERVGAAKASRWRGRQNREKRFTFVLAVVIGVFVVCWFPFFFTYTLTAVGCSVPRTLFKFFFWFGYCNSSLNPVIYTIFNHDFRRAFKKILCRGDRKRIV
- ASSAY INFO: Radioligand binding, [3H]rauwolscine, CHO-C10 cell membranes
- CONDITIONS USED: CHO-C10, 22° C., 30 minutes, read-out: Ki (nM) α2A (CHO-C10)
- Experimental: Cell preparation: HT-29 and chinese hamster ovary (CHO) cells expressing the human α2A (CHO—C10) receptor and CHO cells (CHO—RNG) expressing the rat α2B adrenoceptor were grown to near confluency in Dulbecco's modified Eagle's medium supplemented with 10% fetal bovine serum using standard cell culture methods. Cells were harvested by scraping and placed into cold buffer of the following composition: 50 mM Tris-HCl, 5 mM EDTA, pH 7.4). […]
PROPERTY NAME: Ki

As a guide, the following entries are already answered.
CCC1C2CCC(C2)C1N (stereo not shown) : 67200 nM
NC1C2CCC(C2)C1c1ccccc1 (stereo not shown) : 6570 nM
c1ccc(CCNC2=NCCO2)cc1 : 1750 nM

Ki reading for C1COC(NC2CC3CCC2CC3)=N1 (stereo not shown) : 119 nM

Consider CC(C)C1C2CCC(C2)C1N (stereo not shown) . Its measured Ki is 23300 nM

Briefly, Ki measured for CCCC1C2CCC(C2)C1NC1=NCCO1 (stereo not shown) [drawing 17] : 25 nM

// c1ccc(C2C3CCC(C3)C2NC2=NCCO2)cc1 (stereo not shown) [drawing 10] : Ki value = 1.9 nM

Memo: C1COC(NC23CC4CC(CC(C4)C2)C3)=N1 [drawing 26] , reported Ki: 102 nM

For C1COC(NC23CC4CC(CC(C4)C2)C3)=N1 [drawing 27] the compound record lists Ki as 352 nM

For record c1ccc(C2C3CCC(C3)C2NC2=NCCO2)cc1 (stereo not shown) [drawing 7] the listed Ki is 3.1 nM

Value of Ki reported for the compound CCCC1CCCCC1NC1=NCCO1 (stereo not shown) is 0.6 nM

So for CCCC1C2CCC(C2)C1NC1=NCCO1 (stereo not shown) [drawing 18] , the logged Ki turned out to be 9.8 nM

Briefly, Ki measured for c1cc2c(cc1C1C3CCC(C3)C1NC1=NCCO1)OCO2 (stereo not shown) : 1.1 nM

* * *

- TARGET OR TEST SYSTEM: α1
- ASSAY INFO: Radioligand binding, [3H]prazosin, human cerebral cortex (HCC) membranes
- CONDITIONS USED: 22° C., 30 minutes
PROPERTY NAME: log10 of Ki (log10 of the value in nM)
In plain terms, each number is the log10 of measured Ki in nM.

Worked examples follow.
C1COC(NC2CC3CCC2CC3)=N1 (stereo not shown) : 4.51
c1ccc(C2C3CCC(C3)C2NC2=NCCO2)cc1 (stereo not shown) [drawing 7] : 3.27
C1COC(NC23CC4CC(CC(C4)C2)C3)=N1 [drawing 27] : 4.54
CCCC1C2CCC(C2)C1NC1=NCCO1 (stereo not shown) [drawing 17] : 3.93
NC1C2CCC(C2)C1c1ccccc1 (stereo not shown) : 4.04

Entry C1CCC(C2C3CCC(C3)C2NC2=NCCN2)CC1 (stereo not shown) ; log10 of Ki = 4.24

The recorded log10 of Ki for entry c1ccc(C2C3CCC(C3)C2NC2=NCCO2)cc1 (stereo not shown) [drawing 10] equals 1.86

log10 of Ki for CCCC1C2CCC(C2)C1NC1=NCCO1 (stereo not shown) [drawing 18] is 3.95

Please fill in: log10 of Ki reported for CCCCC1C2CCC(C2)C1NC1=NCCS1 (stereo not shown) = 4.62

* * *

Known log10(Ki) of a selection of molecules
- TARGET OR TEST SYSTEM: α1
- ASSAY INFO: Radioligand binding, [3H]prazosin, human cerebral cortex (HCC) membranes
- CONDITIONS USED: 22° C., 30 minutes
Answers are given as log10 of Ki in nM.

Consider the reported log10(Ki) for these molecules:
c1cc2c(cc1C1C3CCC(C3)C1NC1=NCCO1)OCO2 (centres unmarked) : 3.27
CCC1C2CCC(C2)C1NC1=NCCO1 (centres unmarked) : 4.39

Tested on α1, the item CCCC1CCCCC1NC1=NCCO1 (centres unmarked) showed log10(Ki) equal to 3.20

The molecule CCCCC1C2CCC(C2)C1NC1=NCCO1 (centres unmarked) on α1: log10(Ki) was 3.76

Reported log10(Ki) (α1) for entry c1ccc(CCNC2=NCCO2)cc1 is 4.05

* * *

Reported Ki values are given for each entry in this list.
- TARGET OR TEST SYSTEM: α1
- ASSAY INFO: Radioligand binding, [3H]prazosin, human cerebral cortex (HCC) membranes
- CONDITIONS USED: 22° C., 30 minutes

Solved cases (3 shown):
CCCCNC1=NCCO1 : > 100000 nM
CC(C)C1C2CCC(C2)C1N (stereo not shown) : > 100000 nM
CC1(C)C2CCC1(C)C(NC1=NCCO1)C2 (stereo not shown) : > 10000 nM

// moving on: another record for Ki
Briefly, Ki measured for C1COC(NC23CC4CC(CC(C4)C2)C3)=N1 [drawing 26] : > 10000 nM

* * *

- TARGET OR TEST SYSTEM: α1
- ASSAY INFO: Radioligand binding, [3H]prazosin, human cerebral cortex (HCC) membranes
- CONDITIONS USED: 22° C., 30 minutes
PROPERTY NAME: Ki

Reference set (2 entries):
CC(C)C1C2CCC(C2)C1NC1=NCCO1 (stereo not drawn) : > 10000 nM
CCC1C2CCC(C2)C1N (stereo not drawn) : > 100000 nM

Note: attention shifts to another entry.
Measured Ki of C1COC(NC2CC3CCC2C3)=N1 (stereo not drawn) : > 10000 nM
